Assay: Murine serum stability assay
Assay type: in vitro ADME, mouse
Conditions: mouse, serum; linear peptides, Table 11; read-out: Murine serum stability assay, T1/2
For each entry below, report its half-life value.
// note: answer is a bare numeric in min

Identify half-life associated with the molecule CC(C)C[C@H](NC(=O)[C@H](CCCNC(=N)N)NC(=O)[C@H](CC(C)C)NC(=O)[C@H](C)NC(=O)[C@H](CC(C)C)NC(=O)[C@H](CCCNC(=N)N)NC(=O)[C@H](CCC(N)=O)NC(=O)[C@H](CC(C)C)NC(=O)[C@H](C)NC(=O)[C@@H]1CCCN1C(=O)[C@H](Cc1c[nH]c2ccccc12)NC(=O)[C@@H]1CCCN1C(=O)[C@H](C)NC(=O)[C@H](CCCNC(=N)N)NC(=O)[C@@H]1CCCN1C(=O)[C@H](CC(=O)O)NC(=O)[C@@H](N)CC(=O)O)C(=O)O [PRGN_RL] 27.7

Give the value of half-life reported for the following: CC(C)C[C@H](NC(=O)[C@H](CC(C)C)NC(=O)[C@H](CCC(N)=O)NC(=O)[C@H](CCCNC(=N)N)NC(=O)[C@H](CC(C)C)NC(=O)[C@H](C)NC(=O)[C@@H]1CCCN1C(=O)[C@H](CC(=O)O)NC(=O)[C@H](CCCNC(=N)N)NC(=O)[C@H](CC(C)C)NC(=O)[C@@H]1CCCN1C(=O)[C@H](C)NC(=O)[C@H](CC(=O)O)NC(=O)[C@H](Cc1c[nH]c2ccccc12)NC(=O)[C@H](CCCNC(=N)N)NC(=O)[C@@H]1CCCN1C(=O)[C@H](C)N)C(=O)O [PRGN_WT] 3.16

Please report the measured half-life for CC(C)CC[C@H](NC(=O)[C@H](CCC(N)=O)NC(=O)[C@H](CCCNC(=N)N)NC(=O)[C@H](CC(C)C)NC(=O)[C@H](C)NC(=O)[C@@H]1CCCN1C(=O)[C@H](CC(=O)O)NC(=O)[C@H](CCCNC(=N)N)NC(=O)[C@H](CC(C)C)NC(=O)[C@@H]1CCCN1C(=O)[C@H](C)NC(=O)[C@H](CC(=O)O)NC(=O)[C@H](Cc1c[nH]c2ccccc12)NC(=O)[C@H](CCCNC(=N)N)NC(=O)[C@@H]1CCCN1C(=O)[C@H](C)N)C(=O)N[C@@H](CC1CCC1)C(=O)O [Arb-SAR-Q09] 11.5

# return recorded half-life for entry CC(C)C[C@H](NC(=O)[C@H](C)NC(=O)[C@@H]1CCCN1C(=O)[C@H](CC(=O)O)NC(=O)[C@H](CCCNC(=N)N)NC(=O)[C@H](CC(C)C)NC(=O)[C@@H]1CCCN1C(=O)[C@H](C)NC(=O)[C@H](CC(=O)O)NC(=O)[C@H](Cc1c[nH]c2ccccc12)NC(=O)[C@H](CCCNC(=N)N)NC(=O)[C@@H]1CCCN1C(=O)[C@H](C)N)C(=O)N[C@@H](CCCNC(=N)N)C(=O)N[C@@H](CCC(N)=O)C(=O)N[C@@H](CC(C)(C)C)C(=O)N[C@@H](CC(C)(C)C)C(=O)O [Arb-SAR-P22] 9.95
